Biological target: recombinant guanylate cyclase reporter cell line (Rattus norvegicus, UniProt P19686+P20595)
Construct: expressed in transfected cells
Sequence (P19686 1-690): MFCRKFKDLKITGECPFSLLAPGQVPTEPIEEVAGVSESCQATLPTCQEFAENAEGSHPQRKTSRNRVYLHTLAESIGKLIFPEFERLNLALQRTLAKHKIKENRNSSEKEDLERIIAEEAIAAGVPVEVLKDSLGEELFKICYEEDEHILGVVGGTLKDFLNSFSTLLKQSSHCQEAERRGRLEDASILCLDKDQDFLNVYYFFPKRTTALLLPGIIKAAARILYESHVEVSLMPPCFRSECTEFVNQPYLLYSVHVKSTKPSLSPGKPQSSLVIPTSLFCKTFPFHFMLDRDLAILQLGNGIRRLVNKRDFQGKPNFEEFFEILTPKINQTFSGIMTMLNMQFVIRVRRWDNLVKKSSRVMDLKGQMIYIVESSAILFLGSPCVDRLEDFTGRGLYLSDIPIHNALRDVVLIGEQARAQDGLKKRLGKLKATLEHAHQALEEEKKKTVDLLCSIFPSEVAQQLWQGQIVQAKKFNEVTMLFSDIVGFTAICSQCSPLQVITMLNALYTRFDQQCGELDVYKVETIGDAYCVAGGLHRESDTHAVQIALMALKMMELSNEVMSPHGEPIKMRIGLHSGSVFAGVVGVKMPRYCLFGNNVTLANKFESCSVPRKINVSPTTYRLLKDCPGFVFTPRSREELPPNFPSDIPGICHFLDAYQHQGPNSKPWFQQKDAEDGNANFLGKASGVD
Sequence (P20595 1-619): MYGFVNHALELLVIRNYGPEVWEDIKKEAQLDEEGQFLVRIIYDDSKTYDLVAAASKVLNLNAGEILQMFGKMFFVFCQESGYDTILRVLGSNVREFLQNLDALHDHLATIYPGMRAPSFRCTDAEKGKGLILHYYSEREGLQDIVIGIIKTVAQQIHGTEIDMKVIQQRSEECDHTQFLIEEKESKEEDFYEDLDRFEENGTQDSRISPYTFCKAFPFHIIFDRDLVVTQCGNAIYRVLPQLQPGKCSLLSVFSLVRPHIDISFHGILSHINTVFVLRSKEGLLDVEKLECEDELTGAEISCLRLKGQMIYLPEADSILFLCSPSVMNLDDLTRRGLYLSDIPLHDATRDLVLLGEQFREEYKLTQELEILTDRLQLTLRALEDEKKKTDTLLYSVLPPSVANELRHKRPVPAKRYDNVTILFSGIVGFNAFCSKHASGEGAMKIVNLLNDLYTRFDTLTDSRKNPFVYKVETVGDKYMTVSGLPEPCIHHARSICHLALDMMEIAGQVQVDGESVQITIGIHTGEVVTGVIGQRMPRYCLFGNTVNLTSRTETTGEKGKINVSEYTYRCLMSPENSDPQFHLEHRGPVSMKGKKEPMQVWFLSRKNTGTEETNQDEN
Experiment: Effect on a recombinant guanylate cyclase reporter cell line
Assay type: cell-based
Settings: MEC=minimum effective concentration; in some cases as mean values for individual determinations
Procedure: B-2. Effect on a Recombinant Guanylate Cyclase Reporter Cell Line The cellular activity of the compounds of the invention is determined using a recombinant guanylate cyclase reporter cell line, as described in F. Wunder et al., Anal Biochem. 339, 104-112 (2005). Representative MEC values (MEC=minimum effective concentration) for the compounds of the invention are shown in the table below (in some cases as mean values for individual determinations): […]
PARAMETER MEASURED: MEC (µM)

Solved entries:
CCC(C)(N)CNC(=O)c1c(C)nc2c(OCc3c(F)cccc3F)cc(C3CC3)cn12.Cl (racemic)	1.0
Cc1cc(OCc2c(F)cccc2F)c2nc(C)c(C(=O)NCC(C)(N)CCC[Si](C)(C)C)n2c1 (single isomer, unassigned; enantiomer a) [Example 15]	0.3
Cc1nc2c(OCc3ncccc3F)cccn2c1C(=O)NCC(C)(N)CCC(F)(F)F (single isomer, unassigned; enantiomer b)	1.0
Cc1cc(OCc2c(F)cccc2F)c2nc(C3CC(F)(F)C3)c(C(=O)NCC(C)(N)CCC(F)(F)F)n2c1 (single isomer, unassigned; enantiomer b)	3.0

[P] CCC(C)(N)CNC(=O)c1c(C)nc2c(OCc3c(F)cccc3F)cc(OC(F)F)cn12 (racemic)
[Q] Cc1cc(OCc2c(F)cccc2F)c2nc(C(C)C)c(C(=O)NCC(C)(N)CCC(F)(F)F)n2c1 (single isomer, unassigned; enantiomer b)
[R] Cc1cc(OCc2c(F)cccc2F)c2nc(Cl)c(C(=O)NCC(C)(N)CCC(F)(F)F)n2c1 (single isomer, unassigned; enantiomer b)
Order the 3 molecules from highest to lowest MEC. Could you list the labels in the order requested? P, Q, R
(P: 3.0 µM, Q: 2.0 µM, R: 0.07 µM)

[a] CCC(C)(N)CNC(=O)c1c(OC)nc2c(OCc3c(F)cccc3F)cc(C)cn12 (single isomer, unassigned; enantiomer b)
[b] CCC(C)(N)CNC(=O)c1c(C)nc2c(OCc3c(F)cccc3F)cc(COC)cn12.Cl (racemic)
Hi, I'm comparing a with b and wondering which one has the bigger number for MEC. Any idea? # reply format: chosen label b

[a] CCCC(C)(N)CNC(=O)c1c(Cl)nc2c(OCc3c(F)cccc3F)cc(C)cn12 (racemic) [Example 23]
[b] CCCC[C@H](CO)NC(=O)c1c(OC)nc2c(OCc3c(F)cccc3F)cc(C)cn12
Hi, I'm comparing a with b and wondering which one has the bigger number for MEC. Any idea? # reply format: chosen label b

* * *

biological target: recombinant guanylate cyclase reporter cell line (Rattus norvegicus, UniProt P19686+P20595); construct: expressed in transfected cells; assay: Effect on a recombinant guanylate cyclase reporter cell line; type: cell-based; conditions: MEC=minimum effective concentration; in some cases as mean values for individual determinations
PARAMETER MEASURED: MEC (µM)

Solved entries:
CCC(C)(N)CNC(=O)c1c(C)nc2c(OCc3c(F)cccc3F)cc(-c3cccnc3)cn12 (racemic) [Example 1]	10
COc1nc2c(OCc3c(F)cccc3F)cc(C)cn2c1C(=O)NCC(C)(N)CCC(F)(F)F (single isomer, unassigned; enantiomer b) [Example 27]	3.0
CCC(C)(N)CNC(=O)c1c(C)nc2c(OCc3c(F)cccc3F)cc(-n3cccn3)cn12.Cl (racemic) [Example 3]	3.0

[I] CCCC(C)(N)CNC(=O)c1c(Cl)nc2c(OCc3c(F)cccc3F)cc(C)cn12 (single isomer, unassigned; enantiomer a) [Example 24]
[II] CCC(C)(N)CNC(=O)c1c(COC)nc2c(OCc3c(F)cccc3F)cc(C)cn12.Cl (racemic) [Example 8]
[III] CCC(C)(N)CNC(=O)c1c(C)nc2c(OCc3c(F)cccc3F)cc(-c3cnco3)cn12 (racemic) [Example 7]
In this exercise, place the 3 molecules in ascending sequence of their recorded MEC. Could you list the labels in the order requested? I, III, II
(I: 0.1 µM, III: 1.0 µM, II: 10 µM)

[A] Cc1nc2c(OCc3ncccc3F)cc(Cl)cn2c1C(=O)NCC(C)(N)CCC(F)(F)F (single isomer, unassigned; enantiomer b) [Example 10]
[B] CCC(C)(N)CNC(=O)c1c(C)nc2c(OCc3c(F)cccc3F)cc(-c3cnn(C)c3)cn12 (racemic) [Example 6]
Of A and B , whose reported MEC is numerically smaller? # reply format: chosen label A

* * *

Biological target: recombinant guanylate cyclase reporter cell line (Rattus norvegicus, UniProt P19686+P20595)
Construct: expressed in transfected cells
Sequence (P19686 1-690): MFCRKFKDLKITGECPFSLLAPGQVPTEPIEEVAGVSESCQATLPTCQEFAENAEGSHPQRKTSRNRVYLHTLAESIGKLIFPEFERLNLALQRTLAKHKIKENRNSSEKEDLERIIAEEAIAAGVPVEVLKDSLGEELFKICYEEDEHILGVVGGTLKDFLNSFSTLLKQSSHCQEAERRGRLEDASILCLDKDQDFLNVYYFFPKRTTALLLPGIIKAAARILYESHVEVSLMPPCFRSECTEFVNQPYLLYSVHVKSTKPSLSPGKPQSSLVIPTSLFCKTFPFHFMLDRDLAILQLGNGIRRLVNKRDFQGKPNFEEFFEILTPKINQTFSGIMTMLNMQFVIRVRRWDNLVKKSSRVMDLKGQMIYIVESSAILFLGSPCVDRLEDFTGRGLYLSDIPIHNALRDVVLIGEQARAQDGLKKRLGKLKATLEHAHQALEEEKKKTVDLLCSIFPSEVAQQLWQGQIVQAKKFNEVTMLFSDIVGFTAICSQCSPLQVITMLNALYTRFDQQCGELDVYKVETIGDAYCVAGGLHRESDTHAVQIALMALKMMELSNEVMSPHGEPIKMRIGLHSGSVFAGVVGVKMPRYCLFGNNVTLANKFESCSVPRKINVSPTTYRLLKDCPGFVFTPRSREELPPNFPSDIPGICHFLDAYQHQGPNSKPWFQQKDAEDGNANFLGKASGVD
Sequence (P20595 1-619): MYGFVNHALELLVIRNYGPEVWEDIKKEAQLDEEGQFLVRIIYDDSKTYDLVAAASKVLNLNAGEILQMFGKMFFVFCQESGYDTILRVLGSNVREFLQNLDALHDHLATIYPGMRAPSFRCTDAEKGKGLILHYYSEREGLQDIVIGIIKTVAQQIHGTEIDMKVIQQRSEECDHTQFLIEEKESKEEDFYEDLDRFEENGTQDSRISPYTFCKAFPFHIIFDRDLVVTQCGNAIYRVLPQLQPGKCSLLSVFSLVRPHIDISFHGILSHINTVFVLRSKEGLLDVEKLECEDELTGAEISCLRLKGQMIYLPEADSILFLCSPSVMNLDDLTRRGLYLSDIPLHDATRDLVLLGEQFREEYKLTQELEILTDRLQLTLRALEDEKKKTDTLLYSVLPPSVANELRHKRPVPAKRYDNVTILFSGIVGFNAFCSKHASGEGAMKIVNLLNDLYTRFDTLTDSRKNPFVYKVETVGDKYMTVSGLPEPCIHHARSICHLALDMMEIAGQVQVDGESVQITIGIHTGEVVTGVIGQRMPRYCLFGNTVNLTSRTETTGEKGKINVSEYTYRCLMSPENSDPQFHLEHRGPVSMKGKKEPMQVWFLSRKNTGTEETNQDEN
Assay: Effect on a recombinant guanylate cyclase reporter cell line
Format: cell-based
Settings: MEC=minimum effective concentration; in some cases as mean values for individual determinations
PARAMETER MEASURED: MEC (µM)

Cc1cc(OCc2c(F)cccc2F)c2nc(Cl)c(C(=O)NC(CCC(F)(F)C(F)(F)F)C(C)(C)O)n2c1 (single isomer, unassigned; ent-2)	0.03
Cc1cc(OCc2c(F)cccc2F)c2nc(C)c(C(=O)NCC(C)(N)CC[Si](C)(C)C)n2c1 (single isomer, unassigned; enantiomer a) [Example 13]	0.3
CCCC(C)(N)CNC(=O)c1c(Cl)nc2c(OCc3c(F)cccc3F)cc(C)cn12 (single isomer, unassigned; enantiomer b) [Example 25]	0.3

[1] Cc1cc(OCc2ncccc2F)c2nc(C)c(C(=O)NCC(C)(N)CCC(F)(F)F)n2c1 (single isomer, unassigned; enantiomer b)
[2] CCC(C)(N)CNC(=O)c1c(Cl)nc2c(OCc3c(F)cccc3F)cc(C)cn12 (single isomer, unassigned; enantiomer a) [Example 21]
[3] CCC(C)(N)CNC(=O)c1c(Cl)nc2c(OCc3c(F)cccc3F)cc(C)cn12 (racemic) [Example 20]
In this exercise, place the 3 compounds in ascending sequence of their recorded MEC. Could you list the labels in the order requested? 2, 3, 1

The reported measurements were obtained from patent US20170050961A1.
